# target_of_assay: human CB1 receptor (Homo sapiens, UniProt P21554)
# Construct: membranes used
# Sequence (P21554 whole entry): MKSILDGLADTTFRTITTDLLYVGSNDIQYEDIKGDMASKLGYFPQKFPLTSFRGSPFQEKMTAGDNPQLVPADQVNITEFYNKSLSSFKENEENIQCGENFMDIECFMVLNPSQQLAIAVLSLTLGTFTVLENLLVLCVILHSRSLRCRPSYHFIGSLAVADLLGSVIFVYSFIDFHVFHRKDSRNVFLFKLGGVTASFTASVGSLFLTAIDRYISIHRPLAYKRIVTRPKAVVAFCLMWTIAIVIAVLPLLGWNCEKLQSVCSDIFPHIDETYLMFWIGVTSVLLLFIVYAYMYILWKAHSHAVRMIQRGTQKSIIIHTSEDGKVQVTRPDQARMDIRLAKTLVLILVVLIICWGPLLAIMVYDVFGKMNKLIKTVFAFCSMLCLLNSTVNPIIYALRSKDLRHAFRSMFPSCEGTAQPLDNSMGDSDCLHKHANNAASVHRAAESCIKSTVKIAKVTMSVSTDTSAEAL
# assay_overview: Cannabinoid Receptor-1 functional assay: inhibition of CP55940-induced [35S]GTPγS binding to membranes of CHO-K1 cells expressing human CB1
# experimental_setup: 3 nM CP55940, [35S]GTPγS SPA, hCB1 membranes; read-out: IC50 value for antagonizing a CB1 receptor agonist
Reported IC50 values for a set of compounds

Example entries and their recorded answers appear below.
>>> test_value("O=C(O)Cc1c(C(=O)N2CCC(Oc3ccc(F)cc3)C2)nn(-c2ccccc2Cl)c1-c1ccc(Cl)cc1 (stereo not shown) [[1.64]]")
"< 300 nM"
>>> test_value("O=C(c1nn(-c2ccccc2Cl)c(-c2ccc(Cl)cc2)c1Cc1nn[nH]n1)N1CCC(Oc2ccc(Cl)cc2)CC1 [[3.6]]")
"< 300 nM"
>>> test_value("O=C(O)Cc1c(C(=O)N2CCN(c3ncccn3)CC2)nn(-c2ccccc2Cl)c1-c1ccc(Cl)cc1 [[1.16]]")
"300 to 3000 nM"
>>> test_value("O=C(O)Cc1c(C(=O)N2CCC(Oc3cccc(F)c3)CC2)nn(-c2ccccc2Cl)c1-c1ccc(Cl)cc1 [[1.62]]")
"< 300 nM"
>>> test_value("CS(=O)(=O)c1cccc(C2CCN(C(=O)c3nn(-c4ccccc4Cl)c(-c4ccc(Cl)cc4)c3CC(=O)O)CC2)c1 [[1.57]]")
"300 to 3000 nM"

Asked: For the compound O=C(O)COc1c(C(=O)N2CCC(c3ccc(F)cc3)CC2)nn(-c2ccccc2Cl)c1-c1ccc(Cl)cc1 [Compound [1.3]] , give its reported IC50.
Given back: < 300 nM

Asked: Give the reported value of IC50 for this record: O=C(O)Cc1c(C(=O)N2CCc3ccccc3C2)nn(-c2ccccc2Cl)c1-c1ccc(Cl)cc1 [[1.4]]
Given back: < 300 nM

----------
# target_of_assay: human CB1 receptor (Homo sapiens)
# Construct: membranes used
# assay_overview: Cannabinoid Receptor-1 functional assay: inhibition of CP55940-induced [35S]GTPγS binding to membranes of CHO-K1 cells expressing human CB1
# experimental_setup: 3 nM CP55940, [35S]GTPγS SPA, hCB1 membranes; read-out: IC50 value for antagonizing a CB1 receptor agonist
pIC50: −log10 of the molar value.
Entries annotated with measured pIC50

These solved cases illustrate the format of a correct answer.
>>> test_value("O=C(O)Cc1c(C(=O)N2CCC(O)(c3ccc(F)c(Cl)c3)CC2)nn(-c2ccccc2Cl)c1-c1ccc(Cl)cc1 [[1.43]]")
"> 6.52"
>>> test_value("O=C(O)Cc1c(C(=O)N2CCCC2c2ccc(C(F)(F)F)cc2)nn(-c2ccccc2Cl)c1-c1ccc(Cl)cc1 (stereo not drawn) [[1.38]]")
"> 6.52"

Asked: Report pIC50 for O=C(c1nn(-c2ccccc2Cl)c(-c2ccc(Cl)cc2)c1Cc1nn[nH]n1)N1CCC(Oc2cccc(F)c2)CC1 [[3.9]]
Given back: > 6.52

Asked: Specify pIC50 for O=C(c1nn(-c2ccccc2Cl)c(-c2ccc(Cl)cc2)c1Cc1nn[nH]n1)N1CCC(Oc2ccc(F)c(F)c2)CC1 [[3.8]] and stop.
Given back: > 6.52

Asked: Identify the reported pIC50 for the following entry. O=C(O)Cc1c(C(=O)N2CCC(c3ccc(Cl)cc3)CC2)nn(-c2ccccc2Cl)c1-c1ccc(Cl)cc1 [[1.29]]
Given back: > 6.52

Asked: Give the value of pIC50 reported for the following: COC1(c2ccc(F)cc2)CCN(C(=O)c2nn(-c3ccccc3Cl)c(-c3ccc(Cl)cc3)c2CC(=O)O)CC1 [[1.17]]
Given back: > 6.52

Asked: Provide only the value of recorded pIC50 for O=C(c1nn(-c2ccccc2Cl)c(-c2ccc(Cl)cc2)c1Cc1nn[nH]n1)N1CCC(O)(c2ccc(F)cc2)CC1 [[3.2]]
Given back: > 6.52
